conditions: rat; liver microsomes; pH 7.4; 15.0 min; 1.0 µM
Please provide measured half-life for the entries that follow.

Sample records with half-life:
>  <Compound>
Cc1noc(C)c1-c1cc2c(cc(C)n2C)c(-c2cnn(C)c2)n1

>  <Obs Value>
> 30 min

$$$$
>  <Compound>
Nc1nc2c(s1)C(c1ccccc1)CC(=O)N2 (centres undefined)

>  <Obs Value>
> 30 min

$$$$
>  <Compound>
COc1ccnc(NC(=S)N2CCN(c3ncc(C(F)(F)F)cc3Cl)CC2)c1

>  <Obs Value>
> 30 min

$$$$

Pending compound:
Q. Input O=C(Nc1ccccc1C(=O)Nc1cccc(C(F)(F)F)c1)c1ccccc1 , output reported half-life.
A. > 30 min
